tgt: ATR kinase (Homo sapiens, UniProt Q13535)
Construct: Assays were carried out at 25° C. in the presence of 5 nM full-length ATR
Sequence (Q13535 whole entry): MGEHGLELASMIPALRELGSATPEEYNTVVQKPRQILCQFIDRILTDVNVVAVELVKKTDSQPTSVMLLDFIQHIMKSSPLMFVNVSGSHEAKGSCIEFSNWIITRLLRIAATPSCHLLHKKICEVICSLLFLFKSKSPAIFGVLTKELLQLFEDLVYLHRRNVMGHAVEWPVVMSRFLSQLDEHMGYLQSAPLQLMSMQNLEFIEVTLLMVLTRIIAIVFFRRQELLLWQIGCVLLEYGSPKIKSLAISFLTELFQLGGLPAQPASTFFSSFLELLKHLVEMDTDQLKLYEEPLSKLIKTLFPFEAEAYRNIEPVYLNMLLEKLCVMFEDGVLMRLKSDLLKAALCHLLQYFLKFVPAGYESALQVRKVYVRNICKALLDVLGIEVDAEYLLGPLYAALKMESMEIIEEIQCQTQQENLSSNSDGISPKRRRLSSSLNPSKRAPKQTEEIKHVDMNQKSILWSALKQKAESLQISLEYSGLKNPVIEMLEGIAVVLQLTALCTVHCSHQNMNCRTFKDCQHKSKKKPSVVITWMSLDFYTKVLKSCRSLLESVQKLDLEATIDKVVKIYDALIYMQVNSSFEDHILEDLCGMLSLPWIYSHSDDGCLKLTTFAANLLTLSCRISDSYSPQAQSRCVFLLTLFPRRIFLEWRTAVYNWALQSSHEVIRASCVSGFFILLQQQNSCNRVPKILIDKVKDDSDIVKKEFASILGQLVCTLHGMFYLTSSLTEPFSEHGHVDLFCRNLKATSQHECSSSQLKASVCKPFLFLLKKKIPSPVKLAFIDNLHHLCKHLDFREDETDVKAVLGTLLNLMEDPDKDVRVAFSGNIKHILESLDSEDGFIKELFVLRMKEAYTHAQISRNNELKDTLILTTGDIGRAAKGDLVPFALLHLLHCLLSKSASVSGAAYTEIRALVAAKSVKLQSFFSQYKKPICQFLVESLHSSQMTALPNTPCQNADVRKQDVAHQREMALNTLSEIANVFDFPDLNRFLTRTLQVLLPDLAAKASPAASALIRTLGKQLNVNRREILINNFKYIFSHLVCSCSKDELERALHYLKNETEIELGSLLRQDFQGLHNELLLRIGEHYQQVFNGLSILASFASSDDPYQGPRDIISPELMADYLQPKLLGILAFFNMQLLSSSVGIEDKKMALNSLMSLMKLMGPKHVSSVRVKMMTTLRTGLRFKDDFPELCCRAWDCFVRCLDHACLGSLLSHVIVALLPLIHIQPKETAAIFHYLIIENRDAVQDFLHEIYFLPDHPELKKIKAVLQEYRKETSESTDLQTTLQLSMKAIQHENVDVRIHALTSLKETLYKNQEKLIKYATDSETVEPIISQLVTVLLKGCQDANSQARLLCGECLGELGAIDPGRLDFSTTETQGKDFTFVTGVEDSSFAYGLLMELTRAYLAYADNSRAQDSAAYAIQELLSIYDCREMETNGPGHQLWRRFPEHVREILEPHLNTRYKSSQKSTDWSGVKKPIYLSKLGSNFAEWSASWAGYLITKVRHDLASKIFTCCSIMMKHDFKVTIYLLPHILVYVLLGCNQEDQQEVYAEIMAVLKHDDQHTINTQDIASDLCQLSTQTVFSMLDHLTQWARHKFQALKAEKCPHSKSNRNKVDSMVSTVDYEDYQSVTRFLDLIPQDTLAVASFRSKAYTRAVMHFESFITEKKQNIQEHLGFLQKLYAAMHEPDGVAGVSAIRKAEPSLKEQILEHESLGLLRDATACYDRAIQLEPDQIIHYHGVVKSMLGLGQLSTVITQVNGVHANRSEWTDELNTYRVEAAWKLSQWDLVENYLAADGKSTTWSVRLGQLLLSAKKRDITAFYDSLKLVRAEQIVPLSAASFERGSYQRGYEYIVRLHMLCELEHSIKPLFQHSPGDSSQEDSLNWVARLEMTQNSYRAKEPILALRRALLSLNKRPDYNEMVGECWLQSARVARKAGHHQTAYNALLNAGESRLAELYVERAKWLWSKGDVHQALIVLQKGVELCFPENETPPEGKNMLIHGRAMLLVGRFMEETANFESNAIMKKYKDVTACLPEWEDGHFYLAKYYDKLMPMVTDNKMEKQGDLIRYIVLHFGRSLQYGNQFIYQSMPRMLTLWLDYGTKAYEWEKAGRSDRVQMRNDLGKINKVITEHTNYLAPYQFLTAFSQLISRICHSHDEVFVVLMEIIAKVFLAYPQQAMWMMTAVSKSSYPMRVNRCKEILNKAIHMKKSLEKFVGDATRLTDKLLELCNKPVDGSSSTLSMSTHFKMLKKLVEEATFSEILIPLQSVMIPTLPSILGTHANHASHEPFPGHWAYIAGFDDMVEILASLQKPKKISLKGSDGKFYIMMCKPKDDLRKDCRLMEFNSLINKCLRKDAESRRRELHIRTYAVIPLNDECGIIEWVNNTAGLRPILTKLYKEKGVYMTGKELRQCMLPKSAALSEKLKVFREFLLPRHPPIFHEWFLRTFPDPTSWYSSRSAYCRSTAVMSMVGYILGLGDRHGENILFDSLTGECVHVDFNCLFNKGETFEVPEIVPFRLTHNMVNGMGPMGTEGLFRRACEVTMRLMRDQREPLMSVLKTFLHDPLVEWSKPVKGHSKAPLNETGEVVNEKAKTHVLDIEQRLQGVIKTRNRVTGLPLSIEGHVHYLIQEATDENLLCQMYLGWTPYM
assay_method_text: ATR Inhibition Assay (radioactive-phosphate incorporation)
assay_context: Ki(app); 5 nM full-length ATR, 10 μM ATP, 800 μM target peptide, 25° C.
Record form. Attribute: Ki. Fill in for each entry.

INPUT: Which Ki value is on record for COc1ccncc1NC(=O)c1c(N)nn2ccc(N3CC4(COC4)C3)nc12 ?
OUTPUT: 10 to 1000 nM

INPUT: Thanks! And COc1ccncc1NC(=O)c1c(N)nn2ccc(C(F)(F)F)nc12 ?
OUTPUT: < 10 nM

INPUT: Thanks! And CNC1CCN(c2ccn3nc(N)c(C(=O)Nc4cnccc4OC)c3n2)C1 (stereo not shown) ?
OUTPUT: 10 to 1000 nM

INPUT: Thanks! And Nc1nn2ccc(C(F)(F)F)nc2c1C(=O)Nc1cnccc1O[C@@H]1CCNC1 ?
OUTPUT: 10 to 1000 nM

INPUT: Thanks! And COc1ccncc1NC(=O)c1c(N)nn2ccc(OCCN3CCC3)nc12 ?
OUTPUT: 10 to 1000 nM

INPUT: Thanks! And CN1CCC(Oc2ccncc2NC(=O)c2c(N)nn3ccc(C(F)(F)F)nc23)CC1 ?
OUTPUT: 10 to 1000 nM

INPUT: Thanks! And Nc1nn2ccc(C(F)(F)F)nc2c1C(=O)Nc1cnccc1OCCN1CCOCC1 ?
OUTPUT: 10 to 1000 nM

INPUT: Thanks! And CN1CCC(Oc2c(Cl)cncc2NC(=O)c2c(N)nn3ccc(C(F)(F)F)nc23)CC1 ?
OUTPUT: 1000 to 5000 nM

INPUT: Thanks! And COc1ccncc1NC(=O)c1c(N)nn2ccc(N3CCNCC3)nc12 ?
OUTPUT: 10 to 1000 nM

INPUT: Thanks! And CN(C)CCOc1ccncc1NC(=O)c1c(N)nn2ccc(C(F)(F)F)nc12 ?
OUTPUT: 10 to 1000 nM

INPUT: Thanks! And CC(C)Oc1ccncc1NC(=O)c1c(N)nn2ccc(OCCN(C)C)nc12 ?
OUTPUT: 1000 to 5000 nM

INPUT: Thanks! And Cc1ccncc1NC(=O)c1c(N)nn2ccc(OCCN(C)C)nc12 ?
OUTPUT: 1000 to 5000 nM

INPUT: Thanks! And CNCc1ccn2nc(N)c(C(=O)Nc3cnccc3OC)c2n1 ?
OUTPUT: 10 to 1000 nM

INPUT: Thanks! And COc1ccncc1NC(=O)c1c(N)nn2ccc(N(C)CC3CCCN3C)nc12 (stereo not shown) ?
OUTPUT: 10 to 1000 nM

INPUT: Thanks! And CN(C)CCOc1cc(C(F)(F)F)ncc1NC(=O)c1c(N)nn2ccc(C(F)(F)F)nc12 ?
OUTPUT: 10 to 1000 nM

INPUT: Thanks! And CN(C)Cc1ccc(Oc2ccncc2NC(=O)c2c(N)nn3ccc(C(F)(F)F)nc23)cn1 ?
OUTPUT: 10 to 1000 nM

INPUT: Thanks! And CC(C)Oc1ccncc1NC(=O)c1c(N)nn2ccc(N3CCN(C)CC3)nc12 ?
OUTPUT: 1000 to 5000 nM

INPUT: Thanks! And COc1ccncc1NC(=O)c1c(N)nn2ccc(N3CCC(N(C)C)CC3)nc12 ?
OUTPUT: 10 to 1000 nM

INPUT: Thanks! And Nc1nn2ccc(C(F)(F)F)nc2c1C(=O)Nc1cnccc1OC1CC2(CNC2)C1 ?
OUTPUT: 10 to 1000 nM

INPUT: Thanks! And COc1ccncc1NC(=O)c1c(N)nn2ccc(NCCN3CCCC3)nc12 ?
OUTPUT: 10 to 1000 nM

INPUT: Thanks! And CN1CCC[C@@H]1COc1ccncc1NC(=O)c1c(N)nn2ccc(C(F)(F)F)nc12 ?
OUTPUT: 10 to 1000 nM

INPUT: Thanks! And CN(C)CCOCCOc1ccncc1NC(=O)c1c(N)nn2ccc(C(F)(F)F)nc12 ?
OUTPUT: 10 to 1000 nM
